- experimental target: hCMV UL128 + UL130 + UL131A (co-expressed in HEK293T cells) (human cytomegalovirus, UniProt P16837 28-171; P16772 1-214; F5HET4 19-129)
- Sequence (P16837 28-171 limits assumed, one chain of several): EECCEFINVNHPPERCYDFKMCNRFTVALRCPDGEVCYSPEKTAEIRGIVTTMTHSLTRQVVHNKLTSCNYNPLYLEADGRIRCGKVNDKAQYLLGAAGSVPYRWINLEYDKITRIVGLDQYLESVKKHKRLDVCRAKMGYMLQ
- protocol description: cell-based or functional assay
measured parameter: 50% Neutralization MRC-9

binder="8J16 (antibody, V domains shown) VH: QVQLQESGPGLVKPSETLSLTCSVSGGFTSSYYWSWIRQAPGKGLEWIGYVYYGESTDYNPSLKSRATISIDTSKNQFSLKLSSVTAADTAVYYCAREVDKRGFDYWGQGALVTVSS VL: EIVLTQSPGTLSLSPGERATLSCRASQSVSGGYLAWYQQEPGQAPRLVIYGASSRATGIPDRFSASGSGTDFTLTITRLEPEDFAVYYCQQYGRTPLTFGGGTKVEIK" observed="> 2 µg/mL"
binder="9I6 (antibody, V domains shown) VH: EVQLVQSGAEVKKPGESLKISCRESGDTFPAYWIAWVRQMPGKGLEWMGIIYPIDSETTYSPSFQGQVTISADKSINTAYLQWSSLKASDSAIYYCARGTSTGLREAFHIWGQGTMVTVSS VL: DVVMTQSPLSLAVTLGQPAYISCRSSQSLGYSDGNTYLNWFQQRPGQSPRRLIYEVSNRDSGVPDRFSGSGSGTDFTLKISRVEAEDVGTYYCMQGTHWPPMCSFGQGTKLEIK" observed="> 2 µg/mL"
binder="7I13 (antibody, V domains shown) VH: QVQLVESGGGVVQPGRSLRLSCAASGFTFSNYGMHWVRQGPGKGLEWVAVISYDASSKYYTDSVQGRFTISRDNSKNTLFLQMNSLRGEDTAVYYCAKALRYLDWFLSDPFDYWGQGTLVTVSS VL: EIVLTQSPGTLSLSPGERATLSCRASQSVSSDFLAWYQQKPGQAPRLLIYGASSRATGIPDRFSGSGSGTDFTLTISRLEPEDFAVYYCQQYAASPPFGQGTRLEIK" observed="> 2 µg/mL"
binder="7B13 (antibody, V domains shown) VH: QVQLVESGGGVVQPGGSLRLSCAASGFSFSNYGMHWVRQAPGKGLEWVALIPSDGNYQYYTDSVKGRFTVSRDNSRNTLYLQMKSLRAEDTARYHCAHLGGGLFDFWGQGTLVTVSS VL: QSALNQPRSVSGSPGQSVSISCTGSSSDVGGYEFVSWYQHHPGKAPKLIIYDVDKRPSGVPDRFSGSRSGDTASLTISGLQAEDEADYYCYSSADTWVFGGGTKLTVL" observed="> 2 µg/mL"
binder="2C12 (antibody, V domains shown) VH: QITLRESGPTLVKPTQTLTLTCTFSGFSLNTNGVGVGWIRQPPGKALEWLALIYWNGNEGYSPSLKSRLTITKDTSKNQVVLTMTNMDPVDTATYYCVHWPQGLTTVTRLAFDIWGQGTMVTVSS VL: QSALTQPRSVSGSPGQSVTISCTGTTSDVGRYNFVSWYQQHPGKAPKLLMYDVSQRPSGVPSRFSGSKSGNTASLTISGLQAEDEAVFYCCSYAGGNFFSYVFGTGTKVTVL" observed="≤ 2 µg/mL"
binder="8C15 (antibody, V domains shown) VH: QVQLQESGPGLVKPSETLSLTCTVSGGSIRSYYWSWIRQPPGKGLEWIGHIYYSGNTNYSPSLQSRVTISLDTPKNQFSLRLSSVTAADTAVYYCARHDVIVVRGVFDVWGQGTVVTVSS VL: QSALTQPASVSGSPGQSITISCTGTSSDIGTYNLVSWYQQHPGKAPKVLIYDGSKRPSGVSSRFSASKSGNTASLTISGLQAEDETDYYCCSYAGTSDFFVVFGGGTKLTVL" observed="> 2 µg/mL"
